Tested target: Kappa-type opioid receptor (Homo sapiens)
Assay remarks: Enhancement of [35S]GTP-gamma-S binding to human KOR expressed in CHO cells relative to U50,488H
Assay type: functional, cell-based
Measured endpoint: Efficacy (%)
Report the value in % with no unit label.

# compound CCC(=O)N[C@@H]1C[C@@H](C(=O)OC)[C@]2(C)CC[C@H]3C(=O)O[C@H](c4ccoc4)C[C@]3(C)[C@H]2C1=O ; its Efficacy = 102

CCC(=O)N(CC)[C@@H]1C[C@@H](C(=O)OC)[C@]2(C)CC[C@H]3C(=O)O[C@H](c4ccoc4)C[C@]3(C)[C@H]2C1=O yielded Efficacy of 96

// COC(=O)[C@@H]1C[C@H](OC(C)=O)C(=O)[C@@H]2[C@@]3(C)C[C@@H](c4ccoc4)OC(=O)[C@H]3CC[C@]21C : Efficacy value = 88

Query COC(=O)[C@@H]1C[C@H](N(C)C)C(=O)[C@H]2[C@@]1(C)CC[C@H]1C(=O)O[C@H](c3ccoc3)C[C@]21C yields Efficacy of 110

Efficacy reported for this compound CCN(C(C)=O)[C@@H]1C[C@@H](C(=O)OC)[C@]2(C)CC[C@H]3C(=O)O[C@H](c4ccoc4)C[C@]3(C)[C@H]2C1=O : 95

----------
Measured endpoint: log10 of Ki (log10 of the value in nM)
Please keep in mind that the values are log10 of Ki expressed in nM.

Sample COC(=O)[C@@H]1C[C@@H](NC(C)C)C(=O)[C@H]2[C@@]1(C)CC[C@H]1C(=O)O[C@H](c3ccoc3)C[C@]21C , system: Kappa-type opioid receptor (Homo sapiens, UniProt P41145). Its log10 of Ki is 0.36

Form field, log10 of Ki with Kappa-type opioid receptor (Homo sapiens, UniProt P41145), item COC(=O)[C@@H]1C[C@@H](N)C(=O)[C@H]2[C@@]1(C)CC[C@H]1C(=O)O[C@H](c3ccoc3)C[C@]21C : 2.35

log10 of Ki for Kappa-type opioid receptor (Homo sapiens, UniProt P41145) with input COC[C@@H]1C[C@H](OC(C)=O)C(=O)[C@@H]2C3(C)C[C@@H](c4ccoc4)OC[C@H]3C(=O)C[C@@]12C (some centres undefined) equals 2.89

Reported Kappa-type opioid receptor (Homo sapiens, UniProt P41145) log10 of Ki for item COC(=O)[C@@H]1C[C@H](NC(C)C)C(=O)[C@H]2[C@@]1(C)CC[C@H]1C(=O)O[C@H](c3ccoc3)C[C@]21C was 1.25

The observed log10 of Ki for CCC(=O)N(CC)[C@H]1C[C@@H](C(=O)OC)[C@]2(C)CC[C@H]3C(=O)O[C@H](c4ccoc4)C[C@]3(C)[C@H]2C1=O when tested with Kappa-type opioid receptor (Homo sapiens, UniProt P41145) stands at 1.58

Kappa-type opioid receptor (Homo sapiens, UniProt P41145) assay, molecule CCCC(=O)O[C@@H]1C[C@@H](C(=O)OC)[C@]2(C)CC[C@H]3C(=O)O[C@H](c4ccoc4)C[C@]3(C)[C@H]2C1=O , recorded log10 of Ki = 2.82

Case CCC(=O)N[C@H]1C[C@@H](C(=O)OC)[C@]2(C)CC[C@H]3C(=O)O[C@H](c4ccoc4)C[C@]3(C)[C@H]2C1=O , Kappa-type opioid receptor (Homo sapiens, UniProt P41145), log10 of Ki recorded as 2.57

Short answer on Kappa-type opioid receptor (Homo sapiens, UniProt P41145) for COC(=O)[C@@H]1C[C@H](NC(C)=O)C(=O)[C@H]2[C@@]1(C)CC[C@H]1C(=O)O[C@H](c3ccoc3)C[C@]21C , log10 of Ki: 2.17

log10 of Ki on Kappa-type opioid receptor (Homo sapiens, UniProt P41145) for CN[C@H]1C[C@@H](C(=O)OC)[C@]2(C)CC[C@H]3C(=O)O[C@H](c4ccoc4)C[C@]3(C)[C@H]2C1=O is 2.52

Summary line: CCN[C@H]1C[C@@H](C(=O)OC)[C@]2(C)CC[C@H]3C(=O)O[C@H](c4ccoc4)C[C@]3(C)[C@H]2C1=O , Kappa-type opioid receptor (Homo sapiens, UniProt P41145), reported log10 of Ki = 1.81

----------
Tested target: Kappa-type opioid receptor (Homo sapiens, UniProt P41145)
Sequence (P41145 whole entry): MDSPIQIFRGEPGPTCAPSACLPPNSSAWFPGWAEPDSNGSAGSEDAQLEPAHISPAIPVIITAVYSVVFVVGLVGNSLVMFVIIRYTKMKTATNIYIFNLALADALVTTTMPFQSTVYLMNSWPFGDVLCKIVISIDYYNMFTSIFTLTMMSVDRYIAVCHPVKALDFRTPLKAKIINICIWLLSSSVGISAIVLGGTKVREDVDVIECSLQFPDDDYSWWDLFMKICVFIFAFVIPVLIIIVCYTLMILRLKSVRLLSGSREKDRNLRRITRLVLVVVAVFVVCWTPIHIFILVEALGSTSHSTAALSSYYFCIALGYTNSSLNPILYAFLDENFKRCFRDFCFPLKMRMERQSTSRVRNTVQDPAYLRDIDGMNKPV
Please assign no whenever Ki is at or above 7 nM, and yes whenever it is below.

Task item: Is Ki of COC(=O)[C@@H]1C[C@H](N(C)C(C)=O)C(=O)[C@H]2[C@@]1(C)CC[C@H]1C(=O)O[C@H](c3ccoc3)C[C@]21C strictly below 7 nM?
Reply: yes

Task item: Please determine if COC(=O)[C@@H]1C[C@@H](NC(C)=O)C(=O)[C@H]2[C@@]1(C)CC[C@H]1C(=O)O[C@H](c3ccoc3)C[C@]21C is below 7 nM in terms of Ki.
Reply: no

Task item: # TODO verify Ki < 7 nM strictly for this compound: CCC(=O)O[C@@H]1C[C@@H](C(=O)OC)[C@]2(C)CC[C@H]3C(=O)O[C@H](c4ccoc4)C[C@]3(C)[C@H]2C1=O
Reply: no

Task item: Is the reported Ki for CCNC(=O)[C@@H]1C[C@H](OC(C)=O)C(=O)[C@H]2[C@@]1(C)CC[C@H]1C(=O)O[C@H](c3ccoc3)C[C@]21C strictly below 7 nM?
Reply: no

Task item: Say whether its Ki is strictly beneath 7 nM. Entry: CCNC(=O)[C@@H]1C[C@H](OC(C)=O)C(=O)[C@@H]2[C@@]3(C)C[C@@H](c4ccoc4)OC(=O)[C@H]3CC[C@]21C
Reply: no

Task item: Strictly below 7 nM in Ki? CC(=O)O[C@H]1C[C@@H](CN(C)C)[C@]2(C)CC(=O)[C@@H]3CO[C@H](c4ccoc4)CC3(C)[C@H]2C1=O (some centres undefined)
Reply: no

Task item: Report whether reported Ki is lower than 7 nM (strictly) for COC(=O)[C@@H]1C[C@H](N(C)C)C(=O)[C@H]2[C@@]1(C)CC[C@H]1C(=O)O[C@H](c3ccoc3)C[C@]21C
Reply: no

Task item: Just wondering, is Ki of CCC(=O)N(C)[C@H]1C[C@@H](C(=O)OC)[C@]2(C)CC[C@H]3C(=O)O[C@H](c4ccoc4)C[C@]3(C)[C@H]2C1=O below 7 nM?
Reply: yes

Task item: For this compound, is Ki lower than 7 nM? CCC(=O)N(CC)[C@@H]1C[C@@H](C(=O)OC)[C@]2(C)CC[C@H]3C(=O)O[C@H](c4ccoc4)C[C@]3(C)[C@H]2C1=O
Reply: no

Task item: Input CCN(C(C)=O)[C@@H]1C[C@@H](C(=O)OC)[C@]2(C)CC[C@H]3C(=O)O[C@H](c4ccoc4)C[C@]3(C)[C@H]2C1=O ; condition: Ki strictly below 7 nM. Does it hold?
Reply: no

Task item: Lab note: confirm whether the reported Ki for this compound is below 7 nM, equality not counting. compound: COC(=O)[C@@H]1C[C@@H](OC)C(=O)[C@H]2[C@@]1(C)CC[C@H]1C(=O)O[C@H](c3ccoc3)C[C@]21C
Reply: no

Task item: In the record for CNC(=O)[C@@H]1C[C@H](OC(C)=O)C(=O)[C@@H]2[C@@]3(C)C[C@@H](c4ccoc4)OC(=O)[C@H]3CC[C@]21C , is Ki less than 7 nM?
Reply: no

Task item: Does this compound meet the criterion Ki < 7 nM? CNC[C@@H]1C[C@H](OC(C)=O)C(=O)[C@@H]2C3(C)C[C@@H](c4ccoc4)OC[C@H]3C(=O)C[C@@]12C (some centres undefined)
Reply: no

----------
Tested target: Kappa-type opioid receptor (Homo sapiens)
Assay remarks: Enhancement of [35S]GTP-gamma-S binding to human KOR expressed in CHO cells
Measured endpoint: pEC50
Convention used: pEC50 is expressed as -log10 of the molar concentration.

Field pEC50 (system: Kappa-type opioid receptor (Homo sapiens)) for entry COC(=O)[C@@H]1C[C@@H](NC(C)C)C(=O)[C@H]2[C@@]1(C)CC[C@H]1C(=O)O[C@H](c3ccoc3)C[C@]21C = 8.14

// assay Kappa-type opioid receptor (Homo sapiens), entry CCC(=O)N[C@H]1C[C@@H](C(=O)OC)[C@]2(C)CC[C@H]3C(=O)O[C@H](c4ccoc4)C[C@]3(C)[C@H]2C1=O , pEC50 value = 6.35

Entry CCC(=O)N(CC)[C@H]1C[C@@H](C(=O)OC)[C@]2(C)CC[C@H]3C(=O)O[C@H](c4ccoc4)C[C@]3(C)[C@H]2C1=O ; assay system Kappa-type opioid receptor (Homo sapiens); pEC50 recorded at 7.43

Form field pEC50 for item CCN(C(C)=O)[C@@H]1C[C@@H](C(=O)OC)[C@]2(C)CC[C@H]3C(=O)O[C@H](c4ccoc4)C[C@]3(C)[C@H]2C1=O on Kappa-type opioid receptor (Homo sapiens): 6.19

Fill in: Kappa-type opioid receptor (Homo sapiens) pEC50 for CCN(C(C)=O)[C@H]1C[C@@H](C(=O)OC)[C@]2(C)CC[C@H]3C(=O)O[C@H](c4ccoc4)C[C@]3(C)[C@H]2C1=O = 7.60

Given the molecule CCC(=O)N(C)[C@@H]1C[C@@H](C(=O)OC)[C@]2(C)CC[C@H]3C(=O)O[C@H](c4ccoc4)C[C@]3(C)[C@H]2C1=O and test system Kappa-type opioid receptor (Homo sapiens), the measured pEC50 is 7.90

Measured values drawn from ChEMBL document CHEMBL1149338 for this set.
